System: LOX IMVI melanoma
Test: NCI tumour cell line growth inhibition, 48 h
property-label: TGI (µM)
Answer with a number only, understood to be in µM.

Past entries and their recorded results:
* CCOC(=O)c1c(C)[nH]c(/C=C2\N=C(c3ccc[nH]3)C=C2OC)c1C | 0.0168
* O=C1/C(=C/c2ccccc2)CN(CCC(=O)N2C/C(=C\c3ccccc3)C(=O)/C(=C/c3ccccc3)C2)C/C1=C\c1ccccc1 | 4.32
* COc1ccc(C(=O)C(Br)C(Br)C(=O)O)cc1 (stereo not drawn) | 54

Now consider the entry below.
Q: # get_value(readout='TGI', item= O=C1OC(C2OC(=O)c3cc(O)c(O)c(O)c3-c3c(O)c(O)c4oc(=O)c5c(c(O)c(O)c6oc(=O)c3c4c65)-c3c(cc(O)c(O)c3O)C(=O)OCC2O)C2OC(=O)c3c(c(O)c(O)c(O)c3[C@H]2O)-c2c1cc(O)c(O)c2O (stereo partly drawn) )
A: 35.5

* * *

The following molecules are listed with their measured TGI values.
Test system: SK-MEL-28 melanoma
Assay: NCI tumour cell line growth inhibition, 48 h

* Clc1ccc2c(NCCNc3ccnc4cc(Cl)ccc34)ccnc2c1 | 32.5 µM
* NC(Cc1c[nH]c2ccccc12)C(=O)O (stereo unspecified) | > 300 µM
* Cc1cc(O)c(/C=N/c2nc(-c3cccc([N+](=O)[O-])c3)cs2)c(=O)o1 | > 100 µM

Q: Need TGI, item "CC(=N/NC(=S)N1CCCCC1)/C(C)=N\NC(=S)N1CCCCC1"
A: 3.99 µM

Q: May I ask what TGI has been recorded for "O=C1C(Cl)=C(Nc2cccc(O)c2)C(=O)N1c1cccc(Cl)c1" ?
A: > 100 µM

Q: Returns the measured TGI for the input molecule. Input: CC(C(=O)c1ccccc1)C1(O)C(=O)Nc2ccccc21 (stereo unspecified)
A: > 100 µM

* * *

Tested on: OVCAR-8 ovarian
Assay: NCI tumour cell line growth inhibition, 48 h
property-label: TGI (µM)
Please give a number only; it is taken to be in µM.

These recorded examples may help you get a feel for the data.
- CC1OC(O[C@H]2/C=C/C=C/C=C/C=C/C=C/C=C/C=C/[C@H](C)[C@@H](O)[C@@H](C)[C@H](C)OC(=O)C[C@H](O)C[C@H](O)CC[C@@H](O)[C@H](O)C[C@H](O)C[C@]3(O)C[C@H](O)[C@@H](C(=O)O)[C@H](C2)O3)C(O)C(N)C1O (some centres not stated): 57.6
- CN(C)CCNC(=O)c1ccc(NCCCN(C)CCCNc2ccc(C(=O)NCCN(C)C)c3[nH]c4ccc([N+](=O)[O-])cc4c(=O)c23)c2c(=O)c3cc([N+](=O)[O-])ccc3[nH]c12: 1.3
- CC(=O)c1c(-c2ccccc2)c(-c2ccc(OCCN(C)C)cc2)n2ccccc12: 31

Now look at this entry.
Q: May I ask what TGI has been recorded for "O=C(/C=C/c1cccs1)c1cccc(C(=O)/C=C/c2cccs2)n1" ?
A: 19.6

* * *

Test system: A549 NSCLC
Experiment: NCI tumour cell line growth inhibition, 48 h; in the data active = GI50 below about 0.43 µM; inactive = the rest
Pick from yes (active), no (inactive) when you respond.

- CC1(C)CCC2(C(=O)O)CC[C@]3(C)C(=CCC4C5(C)CC[C@H](OC6OC(C(=O)O)C(O)C(OC7OC(CO)C(O)C(O)C7O)C6OC6OC(CO)C(O)C(O)C6O)C(C)(C)C5CCC43C)C2C1 (some centres undefined): no
- CC(C)(C)N1CC(OC(N)=O)C1: no
- O=C(O[C@H]1CN[C@H](C#Cc2cc3ncnc(Nc4ccc(OCc5cccc(F)c5)c(Cl)c4)c3s2)C1)N1CCOCC1: no

Now for a further molecule.
Q: Please indicate how the test categorized "O=C1/C=C/[C@@H](O)[C@@H]2C[C@@H](O)C[C@H]2/C=C/CCC[C@H](CO)O1" .
A: no

* * *

TGI for assorted compounds
Test system: UACC-62 melanoma
Test: NCI tumour cell line growth inhibition, 48 h

Worked cases, answers included:
• O=C(/C=C/c1cccs1)c1cccc(C(=O)/C=C/c2cccs2)n1 = > 100 µM
• O=C1/C(=C/c2ccccc2Br)COc2ccc(O)c(O)c21 = 3.29 µM
• COc1ccc(Cl)cc1NC(=O)c1c(NC(=O)C(F)(F)C(F)(F)F)sc2c1CCCCC2 = 3.86 µM

Q: Report TGI for "O=C1NC(=O)C(=O)C(c2nc3ccccc3s2)C1=O" please.
A: > 100 µM

Q: TGI for C[C@@H](NC1CCC[C@@H]1O)c1ccccc1 (stereo not given in full) ?
A: > 100 µM

Q: // lookup TGI for "Cc1ccc(C(=O)CCC2C(=O)CC(C)(C)CC2=O)cc1"
A: > 100 µM

Q: Bench note: what TGI did "CN(C)CCCN=c1cc2c(=O)n(CCCN(C)C)c(=O)c3c(NCCCN(C)C)cc4c(O)n(CCCN(C)C)c(=O)c1c4c3-2" show?
A: 4.86 µM

Q: State the recorded TGI for this entry: "CCOC(=O)c1cc(=O)oc2c1N(C)c1ncccc1N2"
A: > 100 µM

Q: Sample "Nn1c(SCC(=O)NCc2ccccc2)nc2ccccc2c1=O" — what was its TGI?
A: > 100 µM

Q: What measured TGI goes with N#Cc1nn(C2OC(COC(=O)c3ccccc3)C(OC(=O)c3ccccc3)C2OC(=O)c2ccccc2)c2nc[nH]c(=O)c12 (stereo not given) ?
A: > 100 µM

* * *

Tested on: LOX IMVI melanoma
Assay: NCI tumour cell line growth inhibition, 48 h; in the data active means GI50 below about 0.43 µM; inactive means the rest
One label from this list, please: class 1 = active, class 0 = inactive

Completed entries (count: 2):
• O=C1c2cccc3cc([N+](=O)[O-])cc(c23)C(=O)N1CCN1CCCC1 = class 1
• C=C1SC(=Nc2ccccc2Cl)N(C(=O)c2sc3ccccc3c2Cl)C1(C)C = class 0

Q: What call does the record list for "O=C1/C=C/[C@@H](O)[C@@H]2C[C@@H](O)C[C@H]2/C=C/CCC[C@H](CO)O1" ?
A: class 0

Q: Name the outcome recorded for "CC(C)(C)N1CC(OC(N)=O)C1" in the assay.
A: class 0

Q: // param item: "O=C(O[C@H]1CN[C@H](C#Cc2cc3ncnc(Nc4ccc(OCc5cccc(F)c5)c(Cl)c4)c3s2)C1)N1CCOCC1" ; yields the recorded call
A: class 0

* * *

Documented TGI across a set of molecules
System: NCI-H23 lung
Assay: NCI tumour cell line growth inhibition, 48 h
Express the result in µM but write the number alone.

- COc1ccc(-n2c3c(c4c(CN(C)C)c(O)ccc42)C(=O)c2ccccc2C3=O)cc1: 29.6

Kindly consider the entry below.
Q: Need TGI of CC(=O)O[C@H]1CCC2[C@@H]3CCC4Nc5c(cnn5-c5ccccc5)C[C@]4(C)C3CC[C@@]21C (stereo not given in full) , thanks.
A: 21.2

* * *

Test system: SNB-75 CNS
Assay: NCI tumour cell line growth inhibition, 48 h; in the data active = GI50 below about 0.43 µM; inactive = the rest
The reply should be one of these categories: true (1) (active), false (0) (inactive)

Here's what some known entries look like.
* O=C1CCC2=C3C4CCCCC4C(=O)C4CCCC(OC2C1)C34 (stereo not given) | false (0)
* COc1cc2c(=O)n(CCCn3ccnc3)c3c4cc5c(cc4ccc3c2cc1OC)OCO5 | true (1)

Q: # lookup: test call for "CN(C)Cc1cccc(CN(C)C)[c]1[Sn]([Br])([c]1ccccc1)[c]1ccccc1"
A: false (0)

Q: So what was the verdict on "Cc1cccc2c1O/C(=C\c1ncc([N+](=O)[O-])n1C)C2=O" in this test?
A: false (0)

Q: Please state the recorded outcome for this compound: "CCCCNC(=O)Oc1ccc2c(=O)c3sc4c(=O)c5ccccc5c(=O)c4c3c(=O)c2c1"
A: true (1)

Q: How was "O=C1c2cccc3cc([N+](=O)[O-])cc(c23)C(=O)N1CCN1CCCC1" classified in this test?
A: true (1)

Q: Call for entry "C[C@@H](Oc1cc(NS(=O)(=O)N2CCC2)nc(SCc2cccc(F)c2F)n1)[C@@H](O)CO" :
A: false (0)

Q: Could you check what this test reported for "O=S(=O)(NCCCNc1cc(-c2cn(-c3ccccc3)nc2-c2cccc(O)c2)ccn1)c1cccc2ccccc12" ?
A: false (0)

Q: Please share the test call associated with "CNC(=O)c1cncc(/C=C/c2c(C)cccc2C)c1" .
A: false (0)

Q: Please state the recorded outcome for this compound: CCC1CCCCN1C(=S)N/N=C(\C)c1ccccn1 (stereo not given)
A: false (0)

* * *

Tested on: MDA-MB-435
Pick from YES (active), NO (inactive) when you respond.

- O=C1C(Cl)=C(Nc2cccc(O)c2)C(=O)N1c1cccc(Cl)c1: NO
- Cc1ccc2c(N/N=C\c3ccco3)cc(C)nc2n1: NO
- O=C(Nc1ccc(Cl)cc1)c1cc2cc(F)ccc2cc1O: NO
- COc1ccc(-c2csc(NC(=O)N3CCN(c4cc5c(cc4F)c(=O)c(C(=O)O)cn5C4CC4)CC3)n2)cc1: NO
- O=C(NC1CCN(Cc2ccccc2)CC1)c1cc(C(=O)NC2CCN(Cc3ccccc3)CC2)cc(C(=O)NC2CCN(Cc3ccccc3)CC2)c1: NO
- C[C@@H](Oc1cc(NS(=O)(=O)N2CCC2)nc(SCc2cccc(F)c2F)n1)[C@@H](O)CO: NO

Proceed to the following item.
Q: Could you check what this test reported for "CCCCNC(=O)Oc1ccc2c(=O)c3sc4c(=O)c5ccccc5c(=O)c4c3c(=O)c2c1" ?
A: YES

Data credit: PubChem BioAssay (NCI)
